B1: library; a variant is named by its letters at N, in order (parent)
chain: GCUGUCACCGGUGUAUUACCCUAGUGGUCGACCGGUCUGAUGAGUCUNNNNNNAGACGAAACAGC

- Variants of: B1
- protocolText: normalized RNA/DNA level with ligand (relative to sTRSVctl = 100) (log10 (% of sTRSVctl)); ligand: hypoxanthine (xanthine aptamer); higher = less ribozyme self-cleavage, higher mRNA level
- testConditions: ligand concentration (+) RNA-Seq: 5 mM, HEK293T, reporter: mCherry (pCS4076), ligand present: yes
quantityKind: normalized RNA/DNA level with ligand (log10)
Answers are plain numbers.

Recorded results for 5 variants are shown here.
Input: Which normalized RNA/DNA level with ligand (log10) is reported for this variant? "CAAAUC"
Output: 1.95

Input: Same thing, different variant: "CAGAAU"
Output: 1.9

Input: Proceed to "ACUCCU"
Output: 1.96

Input: Same lookup for "GCCUUA" , please.
Output: 1.97

Input: # iterate: "GUAGAU"
Output: 1.87

Batch request: normalized RNA/DNA level with ligand (log10) for each of the following variants.
1. UAAAAA
2. ACACGA

Output:
1.9
1.91
